target.system: F508delCFTR (Homo sapiens, UniProt P13569, DEL508-508)
Construct: expressed in transfected cells; host or cells: CFBE4lo-F508delCFTR-HRP cells (human lung derived epithelial cell line, doxycycline-inducible)
Sequence (P13569 with tags, fused parts or gaps DEL508-508): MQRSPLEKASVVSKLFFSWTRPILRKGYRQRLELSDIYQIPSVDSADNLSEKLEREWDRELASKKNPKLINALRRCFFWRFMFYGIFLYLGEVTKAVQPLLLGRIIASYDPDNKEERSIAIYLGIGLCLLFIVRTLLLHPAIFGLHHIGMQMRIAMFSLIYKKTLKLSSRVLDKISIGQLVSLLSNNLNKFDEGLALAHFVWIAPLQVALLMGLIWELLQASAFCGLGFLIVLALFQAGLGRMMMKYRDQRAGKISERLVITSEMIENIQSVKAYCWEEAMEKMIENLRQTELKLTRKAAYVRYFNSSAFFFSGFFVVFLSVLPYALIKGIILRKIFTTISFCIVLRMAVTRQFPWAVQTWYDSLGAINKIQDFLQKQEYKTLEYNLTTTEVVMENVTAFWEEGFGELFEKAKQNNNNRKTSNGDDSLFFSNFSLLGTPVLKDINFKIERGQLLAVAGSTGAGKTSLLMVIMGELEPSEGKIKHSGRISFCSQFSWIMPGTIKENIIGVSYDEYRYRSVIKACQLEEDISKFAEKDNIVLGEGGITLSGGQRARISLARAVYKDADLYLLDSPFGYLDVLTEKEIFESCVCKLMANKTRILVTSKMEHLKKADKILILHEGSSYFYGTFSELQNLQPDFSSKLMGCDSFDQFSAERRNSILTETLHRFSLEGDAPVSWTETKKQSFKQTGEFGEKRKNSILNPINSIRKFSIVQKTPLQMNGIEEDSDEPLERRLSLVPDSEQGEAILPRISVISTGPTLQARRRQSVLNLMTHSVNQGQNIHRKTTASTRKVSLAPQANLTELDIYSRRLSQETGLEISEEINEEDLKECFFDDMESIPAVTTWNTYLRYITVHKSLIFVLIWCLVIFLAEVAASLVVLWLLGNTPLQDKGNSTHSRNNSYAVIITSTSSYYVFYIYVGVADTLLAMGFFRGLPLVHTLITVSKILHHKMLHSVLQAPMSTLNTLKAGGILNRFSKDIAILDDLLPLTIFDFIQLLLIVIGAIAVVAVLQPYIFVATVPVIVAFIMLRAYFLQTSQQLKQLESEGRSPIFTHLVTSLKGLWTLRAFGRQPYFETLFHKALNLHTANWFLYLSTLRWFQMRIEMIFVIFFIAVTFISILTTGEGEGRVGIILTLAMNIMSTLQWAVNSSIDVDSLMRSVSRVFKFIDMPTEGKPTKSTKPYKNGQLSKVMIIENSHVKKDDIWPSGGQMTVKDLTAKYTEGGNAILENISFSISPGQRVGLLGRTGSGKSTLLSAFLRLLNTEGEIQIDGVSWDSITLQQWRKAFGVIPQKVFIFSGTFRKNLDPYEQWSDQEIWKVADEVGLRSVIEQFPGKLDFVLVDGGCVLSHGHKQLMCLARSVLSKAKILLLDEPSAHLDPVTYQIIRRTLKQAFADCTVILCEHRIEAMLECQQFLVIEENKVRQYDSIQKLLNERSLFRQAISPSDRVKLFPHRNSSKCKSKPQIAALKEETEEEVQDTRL
method.notes: Cell Surface Expression-Horse Radish Peroxidase (CSE-HRP) Assay
Type: cell-based
recorded.conditions: test compound without co-corrector; CFBE4lo-F508delCFTR-HRP cells, 18-24 hours at 33° C., HRP luminescence readout; read-out: EC50 (without co-corrector)
A collection of molecules and their measured EC50

{"molecule": "O=C(NS(=O)(=O)c1cccc2ccccc12)C1(c2ccccc2)C[C@@H](CN2CCCC2)Oc2ccccc21 (some centres unmarked) [Example 31]", "target.system": "F508delCFTR (Homo sapiens, UniProt P13569, DEL508-508)", "EC50": "≥ 10 µM"}
{"molecule": "O=C(NS(=O)(=O)c1cccc2ccccc12)C1COc2ccccc21 (centres unmarked) [Example 34]", "target.system": "F508delCFTR (Homo sapiens, UniProt P13569, DEL508-508)", "EC50": "≥ 10 µM"}
{"molecule": "COc1ccc(C2CCC2)c2c1C(C(=O)NS(=O)(=O)c1cccc3c1CCCN3)CC(C)(C)O2 (centres unmarked) [Example 93]", "target.system": "F508delCFTR (Homo sapiens, UniProt P13569, DEL508-508)", "EC50": "< 3 µM"}
{"molecule": "C[C@@]1(C(=O)NS(=O)(=O)c2cccc3ccccc23)COc2cc3c(cc21)OC(F)(F)O3 [Example 32]", "target.system": "F508delCFTR (Homo sapiens, UniProt P13569, DEL508-508)", "EC50": "3 to 10 µM"}
{"molecule": "COc1cccc2c1C(C(=O)NS(=O)(=O)c1cccc3ccccc13)CC1(CCCCC1)O2 (centres unmarked) [Example 38]", "target.system": "F508delCFTR (Homo sapiens, UniProt P13569, DEL508-508)", "EC50": "< 3 µM"}

Request: Which EC50 value belongs to COc1ccc(C2CCC2)c2c1[C@H](C(=O)NS(=O)(=O)c1cccc3nc(C)ccc13)CCO2 [Example 77] ?
Response: 3 to 10 µM

Request: Consider the molecule shown here: O=C(NS(=O)(=O)c1cccc2ccccc12)C1(c2ccccc2)COc2ccccc21 (centres unmarked) [Example 6] What is its recorded EC50?
Response: < 3 µM

Request: Data request, read-out EC50, for CCC1(C(=O)NS(=O)(=O)c2cccc3ccccc23)CCOc2cccc(OC)c21 (centres unmarked) [Example 10]
Response: < 3 µM

###

target.system: F508delCFTR (Homo sapiens, UniProt P13569, DEL508-508)
Construct: expressed in transfected cells; host or cells: CFBE4lo-F508delCFTR-HRP cells (human lung derived epithelial cell line, doxycycline-inducible)
method.notes: Cell Surface Expression-Horse Radish Peroxidase (CSE-HRP) Assay
Type: cell-based
recorded.conditions: with co-corrector 2 μM 3-[(2R,4R)-4-({[1-(2,2-difluoro-1,3-benzodioxol-5-yl)cyclopropyl]carbonyl}amino)-7-methoxy-3,4-dihydro-2H-chromen-2-yl]benzoic acid; CFBE4lo-F508delCFTR-HRP cells, 18-24 hours at 33° C.; read-out: EC50 (with co-corrector)
endpoint: EC50

Request: Suppose we examine the compound COc1cccc2c1C(C(=O)NS(=O)(=O)c1cccc3cccnc13)CC(C)(C)O2 (stereo not shown) ; what EC50 value has been reported?
Response: 3 to 10 µM

Request: // lookup EC50 for COc1ccc(C2CCC2)c2c1C(C(=O)NS(=O)(=O)c1cccc3c1NCCC3)CO2 (stereo not shown)
Response: < 3 µM

Request: # input compound: COc1ccc(Br)c2c1C(C(=O)NS(=O)(=O)c1cccc3ccccc13)CCO2 (stereo not shown) ; wanted: its EC50
Response: < 3 µM

Request: May I ask what EC50 has been recorded for Cc1ccccc1S(=O)(=O)NC(=O)C1COc2ccc(Cl)cc21 (stereo not shown) ?
Response: ≥ 10 µM

Request: What does the data say about its EC50? Entry: COc1cccc2c1C(C(=O)NS(=O)(=O)c1cccc3ccccc13)CO2 (stereo not shown)
Response: < 3 µM

Request: Suppose we examine the compound COc1ccc(Br)c2c1OCC2C(=O)NS(=O)(=O)c1cccc2ccccc12 (stereo not shown) ; what EC50 value has been reported?
Response: < 3 µM

Request: // query EC50 value for entry COc1ccc(C2CCC2)c2c1OCCC2C(=O)NS(=O)(=O)c1cccc2ncccc12 (stereo not shown)
Response: < 3 µM
